Biological target: human Lck enzyme (Homo sapiens)
Construct: purchased Carna Biosciences, Inc. 08-170
Experiment: Lck enzyme inhibitory activity (time-resolved fluorometry, biotinylated peptide phosphorylation)
Assay type: biochemical
Settings: biotinylated peptide phosphorylation, read-out: LCK_IC50
Measured property: pIC50
pIC50 is defined as minus the log10 of a concentration measured in mol/L.

Cc1cc(Oc2ccccc2F)ncc1-n1ncc(C(=O)c2cc3cc(OC(F)F)c(NC4CN(S(C)(=O)=O)C4)cc3[nH]2)c1N: 8.25
Cc1cc2cc(C(=O)c3cnn(-c4cnc(Oc5cccc(Cl)c5)cc4C)c3N)[nH]c2cc1NS(=O)(=O)CCCF: 6.96
Cc1cc(Oc2c(F)cccc2Cl)ncc1-n1ncc(C(=O)c2cc3cc(Cl)c(NS(C)(=O)=O)cc3[nH]2)c1N: 7.89
Cc1cc(Oc2ccccc2F)ncc1-n1ncc(C(=O)c2cc3cc(F)c(NS(=O)(=O)CC(=O)N4CCCC4)cc3[nH]2)c1N: 7.80
Cc1cc(Oc2ccccc2F)ncc1-n1ncc(C(=O)c2cc3cc(OCC(F)F)c(NS(=O)(=O)c4cccnc4)cc3[nH]2)c1N: 7.41

I have this molecule here, `Cc1cc(Oc2ccccc2F)ccc1-n1ncc(C(=O)c2cc3cc(OCCN4CCOCC4)c(NS(C)(=O)=O)cc3[nH]2)c1N` , and I need its recorded pIC50.
8.33

* * *

Target: human Yes1 enzyme (Homo sapiens)
Construct: made in house
Sequence (P07947 whole entry): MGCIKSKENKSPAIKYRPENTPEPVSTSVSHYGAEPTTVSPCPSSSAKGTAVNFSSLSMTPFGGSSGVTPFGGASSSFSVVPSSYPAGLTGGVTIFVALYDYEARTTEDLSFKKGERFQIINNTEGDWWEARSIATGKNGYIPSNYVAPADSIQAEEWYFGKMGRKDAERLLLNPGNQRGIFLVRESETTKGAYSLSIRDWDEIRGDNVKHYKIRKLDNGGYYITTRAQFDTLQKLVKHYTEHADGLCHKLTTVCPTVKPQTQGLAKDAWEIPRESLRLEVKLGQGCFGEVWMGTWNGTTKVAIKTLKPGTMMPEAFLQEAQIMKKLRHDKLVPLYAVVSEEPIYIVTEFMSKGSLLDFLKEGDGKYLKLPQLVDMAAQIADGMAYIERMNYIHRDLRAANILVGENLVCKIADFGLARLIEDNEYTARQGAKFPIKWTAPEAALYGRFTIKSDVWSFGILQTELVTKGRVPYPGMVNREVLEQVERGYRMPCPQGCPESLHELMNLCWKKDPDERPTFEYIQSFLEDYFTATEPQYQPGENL
Assay: Yes1 enzyme inhibitory activity (time-resolved fluorometry, biotinylated peptide phosphorylation)
Type: biochemical
Conditions: biotinylated peptide phosphorylation, read-out: YES_IC50
molecules and their reported IC50
Numeric answer only, unit nM assumed.

Reported IC50 for human Yes1 enzyme (Homo sapiens), given `Cc1cc(Oc2ccccc2F)ccc1-n1ncc(C(=O)c2cc3cc(OCCN4[C@@H]5CC[C@H]4COC5)c(NS(C)(=O)=O)cc3[nH]2)c1N` ?
0.46

Reported IC50 for human Yes1 enzyme (Homo sapiens), given `Cc1cc(Oc2ccccc2F)ccc1-n1ncc(C(=O)c2cc3cc(F)c(NS(=O)(=O)C4CC4)cc3[nH]2)c1N` ?
2.2

Reported IC50 for human Yes1 enzyme (Homo sapiens), given `Cc1cc(-n2ncc(C(=O)c3cc4cc(C)c(N5C(=O)NC6(CCCCC6)C5=O)cc4[nH]3)c2N)ccc1Oc1ccccc1F` ?
31

Reported IC50 for human Yes1 enzyme (Homo sapiens), given `Cc1cc2cc(C(=O)c3cnn(-c4ccc(Oc5ccccc5F)cc4C)c3N)[nH]c2cc1N1C(=O)NC2(CCOCC2)C1=O` ?
1.2

Reported IC50 for human Yes1 enzyme (Homo sapiens), given `COc1ccnc(S(=O)(=O)Nc2cc3[nH]c(C(=O)c4cnn(-c5cnc(Oc6c(F)cccc6F)cc5C)c4N)cc3cc2C)c1` ?
2.7

Reported IC50 for human Yes1 enzyme (Homo sapiens), given `Cc1cc(Oc2ccccc2F)ccc1-n1ncc(C(=O)c2cc3cc(OC(F)F)c(NS(=O)(=O)N4CCOCC4)cc3[nH]2)c1N` ?
2.6

* * *

Target: human Lck enzyme (Homo sapiens, UniProt P06239)
Construct: purchased Carna Biosciences, Inc. 08-170
Sequence (P06239 whole entry): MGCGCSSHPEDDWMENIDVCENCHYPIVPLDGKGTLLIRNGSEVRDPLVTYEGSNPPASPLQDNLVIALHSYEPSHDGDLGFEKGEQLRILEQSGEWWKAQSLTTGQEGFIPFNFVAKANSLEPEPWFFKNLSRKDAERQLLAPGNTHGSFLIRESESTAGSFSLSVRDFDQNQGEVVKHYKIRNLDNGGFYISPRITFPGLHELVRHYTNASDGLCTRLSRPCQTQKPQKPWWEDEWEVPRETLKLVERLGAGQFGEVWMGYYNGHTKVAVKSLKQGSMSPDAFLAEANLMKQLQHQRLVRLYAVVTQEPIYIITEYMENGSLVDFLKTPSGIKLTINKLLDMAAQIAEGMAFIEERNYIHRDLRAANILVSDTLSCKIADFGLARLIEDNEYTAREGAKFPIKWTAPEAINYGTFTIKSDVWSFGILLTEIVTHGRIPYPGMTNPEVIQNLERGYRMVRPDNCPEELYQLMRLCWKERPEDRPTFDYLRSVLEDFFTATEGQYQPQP
Experiment: Lck enzyme inhibitory activity (time-resolved fluorometry, biotinylated peptide phosphorylation)
Format: biochemical
Conditions: biotinylated peptide phosphorylation, read-out: LCK_IC50
Measured property: pIC50
pIC50 is defined as minus the log10 of a concentration measured in mol/L.

Cc1cc(Oc2cccc(Cl)c2)ccc1-n1ncc(C(=O)c2cc3cc(F)c(C4CCN(C(C)C)CC4)cc3[nH]2)c1N [Example 4-2-013]: 8.01
Cc1cc(Oc2ccccc2F)ccc1-n1ncc(C(=O)c2cc3cc(OCC(F)F)c(NS(=O)(=O)C4CC4)cc3[nH]2)c1N [Example 4-24-020]: 7.66

As a next step, examine the compound that follows.
I have this compound here, Cc1cc(Oc2ccccc2F)ccc1-n1ncc(C(=O)c2cc3cc(OCCN4[C@@H]5CC[C@H]4COC5)c(NS(C)(=O)=O)cc3[nH]2)c1N [Example 4-24-039] , and I need its recorded pIC50.
8.55
